// data source = patent US20160185837A1

assayed system: human GLP-1 receptor (human, UniProt P43220 24-463)
measurement notes: cell-based or functional assay
Tick yes (1) if cAMP EC50 is 0.3 nM or greater. Tick no (0) if cAMP EC50 is less than 0.3 nM.

cAMP EC50 >= 0.3 nM for IP390 (Fc fusion) YSEGTFTSDYSKLLEEEAVRLFIEWLVKGPGGGGGSGGGGSGGGGSGGGGSGGGGSACPPC ?
no (0)

cAMP EC50 >= 0.3 nM for IP087 (Fc fusion) YSEGTFTSDYSKLLEEEAVRLFIEWLLAGPAAAGGSGSTASSGSGSATGGGGAATHTCPPCPAPEF ?
no (0)

cAMP EC50 >= 0.3 nM for IP276 (Fc fusion) YSEGTFTSDYSKLLEEEAVRLFIEWLVKGPGGGGGGGGGGGGGGGGGATHTCPPC ?
no (0)

cAMP EC50 >= 0.3 nM for IP360 (Fc fusion) YSEGTFTSDYRILLEEEAVRLFIEWLLAGGGGGGSGGGGSGGGGSGGGGSATHTCPPC ?
yes (1)

cAMP EC50 >= 0.3 nM for IP254 (Fc fusion) YSEGTFTSDYSKLLEEEAVRLFIEWLLAGNGTGGGGSGGGGSGGGGSGGGGSATHTCPPCPAPEF ?
yes (1)
